Hello, the source for this data is patent US20080234355A1, in case you need it.

system: HDAC; assay: HDAC fluorimetric assay kit (AK-500, Biomol), HeLa nuclear extract; type: biochemical; settings: Fluor de Lys substrate, 1 hour reaction, read-out: HDAC IC50 (grade)
I'd be grateful if you could share measured IC50 for these entries.

Known IC50 results, listed for orientation:
1. Nc1ccc(C(=O)NCCNC(=O)CCCCC(=O)NO)cc1 [Compound 30]: 1 to 10 µM
2. Nc1ccc(C(=O)NCCNCCC(=O)NO)cc1 [Compound 25]: > 10 µM
3. Nc1ccc(C(=O)NCCNCCC(=O)CCC(=O)NO)cc1 [Compound 28]: > 10 µM

Provide the reported IC50 of each entry below, same order.
1. CCN(CCNC(=O)c1ccc(N)cc1)C(=O)CCCCC(=O)NO [Compound 36]
2. CCN(CCNC(=O)c1ccc(N)cc1)C(=O)CCC(=O)NO [Compound 34]
3. Nc1ccc(C(=O)NCCNC(=O)CCCC(=O)NO)cc1 [Compound 29]

Reply:
1. 1 to 10 µM
2. > 10 µM
3. 0.1 to 1 µM
